Tested on: SEM cells
Experiment: cell viability relative to DMSO control; higher = less cytotoxic
Conditions: HPLM + 10% dialyzed FBS; 48 h; 0.000781 µM
MEASURE: cell viability (%)

[
  {
    "RECORD_SMILES": "Nc1nc(NCCNc2ncc(-n3ccnc3)c(-c3ccc(Cl)cc3Cl)n2)ccc1[N+](=O)[O-]",
    "MEASURE": "cell viability",
    "MEASUREMENT_UNITS": "%",
    "OBSERVED": 120
  },
  {
    "RECORD_SMILES": "CC(C)Cn1cnc2c(N)nc3ccccc3c21",
    "MEASURE": "cell viability",
    "MEASUREMENT_UNITS": "%",
    "OBSERVED": 98.8
  },
  {
    "RECORD_SMILES": "CN(C)CCc1c[nH]c2ccc(C[S+](=O)([O-])N3CCCC3)cc12",
    "MEASURE": "cell viability",
    "MEASUREMENT_UNITS": "%",
    "OBSERVED": 78.9
  },
  {
    "RECORD_SMILES": "COc1ccc(-c2oc3cc(OC)ccc3c2C(=O)c2ccc(C#N)cc2)cc1",
    "MEASURE": "cell viability",
    "MEASUREMENT_UNITS": "%",
    "OBSERVED": 114
  },
  {
    "RECORD_SMILES": "COc1cc2ncn(-c3cc(OCc4ccccc4C(F)(F)F)c(C(N)=O)s3)c2cc1OC",
    "MEASURE": "cell viability",
    "MEASUREMENT_UNITS": "%",
    "OBSERVED": 120
  },
  {
    "RECORD_SMILES": "OCCN1C[C@H](O)[C@@H](O)[C@H](O)[C@H]1CO",
    "MEASURE": "cell viability",
    "MEASUREMENT_UNITS": "%",
    "OBSERVED": 93.6
  },
  {
    "RECORD_SMILES": "Oc1ccc([C@@H]2Oc3ccc(O)cc3[C@@H]3CCC[C@@H]32)cc1",
    "MEASURE": "cell viability",
    "MEASUREMENT_UNITS": "%",
    "OBSERVED": 71.9
  },
  {
    "RECORD_SMILES": "CC(C)c1c(C(=O)Nc2ccccc2)c(-c2ccccc2)c(-c2ccc(F)cc2)n1CC[C@@H](O)C[C@@H](O)CC(=O)[O-]",
    "MEASURE": "cell viability",
    "MEASUREMENT_UNITS": "%",
    "OBSERVED": 108
  },
  {
    "RECORD_SMILES": "Oc1ccc(-c2ccc(-c3cc(Nc4cccc(CNC5CC5)c4)[nH]n3)cc2)c(O)c1",
    "MEASURE": "cell viability",
    "MEASUREMENT_UNITS": "%",
    "OBSERVED": 82.4
  }
]

---

System: SEM cells
Assay: cell viability relative to DMSO control; higher = less cytotoxic
Details: RPMI 5 mM glucose + 10% dialyzed FBS; 48 h; 0.00702 µM
Each item that follows carries a reported cell viability.
MEASURE: cell viability

[
  {
    "MOLECULE": "Oc1ccc([C@@H]2Oc3ccc(O)cc3[C@@H]3CCC[C@@H]32)cc1",
    "TARGET_SYSTEM": "SEM cells",
    "OBSERVED": "98.4%"
  },
  {
    "MOLECULE": "COc1ccc2[nH]cc(CCNC(C)=O)c2c1",
    "TARGET_SYSTEM": "SEM cells",
    "OBSERVED": "114%"
  },
  {
    "MOLECULE": "CCCCCN(CCC12CC3CC(CC(C3)C1)C2)C(=O)NCCCc1ccncc1",
    "TARGET_SYSTEM": "SEM cells",
    "OBSERVED": "106%"
  },
  {
    "MOLECULE": "CCOCC(O)COc1ccc(NC(=O)CC[S+](C)C)cc1 (stereo not drawn)",
    "TARGET_SYSTEM": "SEM cells",
    "OBSERVED": "82.6%"
  },
  {
    "MOLECULE": "CS[C@H]1SC[C@@H]2C(=O)N(C)[C@H](C(C)C)C(=O)OC[C@H](NC(=O)c3cnc4ccccc4n3)C(=O)N[C@H](C)C(=O)N(C)[C@H]1C(=O)N(C)[C@H](C(C)C)C(=O)OC[C@H](NC(=O)c1cnc3ccccc3n1)C(=O)N[C@H](C)C(=O)N2C",
    "TARGET_SYSTEM": "SEM cells",
    "OBSERVED": "34.2%"
  },
  {
    "MOLECULE": "OCCN(CCO)c1nc(N2CCCCC2)c2nc(N(CCO)CCO)nc(N3CCCCC3)c2n1",
    "TARGET_SYSTEM": "SEM cells",
    "OBSERVED": "113%"
  },
  {
    "MOLECULE": "COc1ccc(-c2oc3cc(OC)ccc3c2C(=O)c2ccc(C#N)cc2)cc1",
    "TARGET_SYSTEM": "SEM cells",
    "OBSERVED": "144%"
  },
  {
    "MOLECULE": "O=C1CCCC(=O)C1C(=O)c1ccc(C(F)(F)F)cc1[N+](=O)[O-]",
    "TARGET_SYSTEM": "SEM cells",
    "OBSERVED": "110%"
  }
]
